target: GSK3α (Homo sapiens, UniProt P49840)
Sequence (P49840 whole entry, species assumed): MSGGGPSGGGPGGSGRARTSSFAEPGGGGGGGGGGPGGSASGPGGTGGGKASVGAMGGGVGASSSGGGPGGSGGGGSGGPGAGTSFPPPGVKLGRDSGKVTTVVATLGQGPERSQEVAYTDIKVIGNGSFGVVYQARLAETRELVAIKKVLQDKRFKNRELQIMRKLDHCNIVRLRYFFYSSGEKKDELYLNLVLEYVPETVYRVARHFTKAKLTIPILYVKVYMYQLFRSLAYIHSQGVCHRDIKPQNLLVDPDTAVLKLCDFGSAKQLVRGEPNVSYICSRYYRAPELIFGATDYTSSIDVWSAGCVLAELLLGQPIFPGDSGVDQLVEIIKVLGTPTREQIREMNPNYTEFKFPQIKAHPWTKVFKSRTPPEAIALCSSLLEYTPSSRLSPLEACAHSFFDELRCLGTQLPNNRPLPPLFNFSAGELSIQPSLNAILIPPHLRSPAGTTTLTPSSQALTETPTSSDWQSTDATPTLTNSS
recorded endpoint: log10 of IC50 (log10 of the value in nM)
Note: values are log10 of IC50 expressed in nM.

# molecular string, study target, log10 of IC50
rows = [
    ("O=C(Nc1cnccc1-c1ccccc1)c1ccnc(Nc2ccc(-n3ccnc3)cc2)n1", "GSK3α (Homo sapiens, UniProt P49840)", 1.56),
    ("O=C(Nc1cnccc1OCC(F)(F)F)c1ccnc(NCC(F)(F)F)n1", "GSK3α (Homo sapiens, UniProt P49840)", 0.90),
    ("O=C(Nc1cnccc1OCC(F)(F)F)c1ccnc(Nc2ccc(Cl)cc2)n1", "GSK3α (Homo sapiens, UniProt P49840)", -0.82),
    ("Cc1ccc(Nc2nccc(C(=O)Nc3cnccc3OCC(F)(F)F)n2)cn1", "GSK3α (Homo sapiens, UniProt P49840)", -0.80),
]

**Q:** Please look up its log10 of IC50: O=C(Nc1cnccc1OCC(F)(F)F)c1ccnc(Nc2ccccn2)n1
**A:** 1.15

---

target: GSK3α (Homo sapiens, UniProt P49840)
Catalogue of molecules with associated IC50
// return numeric value only (unit: nM, not printed)

Known results for molecules:
# molecular string, val
records = [
    ("CNc1nccc(C(=O)Nc2cnccc2OCC(F)(F)F)n1", 14),
    ("O=C(Nc1cncnc1OCC(F)(F)F)c1ccnc(Nc2ccc(Cl)cc2)n1", 0.36),
    ("O=C(Nc1cnc(F)cc1N1CCC(F)(F)CC1)c1ccnc(NCC2CC2)n1", 0.61),
    ("O=C(Nc1cnccc1-c1ccc(F)cc1F)c1ccnc(Nc2ccccc2)n1", 0.32),
    ("O=C(Nc1cnccc1-c1ccccc1)c1ccnc(Nc2ccc(OC(F)F)cc2Cl)n1", 2.6),
    ("O=C(Nc1cncnc1N1CCOCC1)c1ccnc(NCC2CC2)n1", 22),
    ("O=C(Nc1cnccc1-c1ccccc1)c1ccnc(Nc2cnn(-c3cc(F)ccc3F)c2)n1", 1.9),
    ("O=C(Nc1cnccc1OCC(F)(F)F)c1ccnc(NCc2ccc3c(c2)OCO3)n1", 2.2),
]

Could you now consider this next molecule?
**Q:** Please look up its IC50: Cc1ccc(Nc2nccc(C(=O)Nc3cnccc3-c3ccccc3)n2)cn1
**A:** 1.5

---

Catalogue of molecules with associated pIC50
molecular target: GSK3α (Homo sapiens); assay: GSK3α kinase assay (Caliper LabChip3000 mobility shift, fluoresceinated peptide substrate)
Quick note: pIC50 values are minus log10 of concentrations in mol/L.

Known results for molecules:
# molecule, study target, pIC50
measured = [
    ("N#Cc1ccc(Nc2nccc(C(=O)Nc3cnccc3-c3ccccc3)n2)cc1Cl [Example 27]", "GSK3α (Homo sapiens)", 9.80),
    ("O=C(Nc1cnccc1-c1ccccc1)c1ccnc(Nc2cncc3c2CCCC3)n1 [Example 91]", "GSK3α (Homo sapiens)", 8.64),
    ("COc1ccc(Nc2nccc(C(=O)Nc3cnccc3OCC(F)(F)F)n2)cc1F [Example 62]", "GSK3α (Homo sapiens)", 10.05),
    ("CN1CCC(Nc2nccc(C(=O)Nc3cnccc3-c3ccccc3)n2)CC1 [Example 165]", "GSK3α (Homo sapiens)", 6.96),
    ("CC(C)CNc1ccc(Nc2nccc(C(=O)Nc3cnccc3-c3ccccc3)n2)cn1 [Example 100]", "GSK3α (Homo sapiens)", 7.19),
    ("O=C(Nc1cnccc1OCC(F)(F)F)c1ccnc(NCc2cccc(C(F)(F)F)c2)n1 [Example 139]", "GSK3α (Homo sapiens)", 8.27),
    ("O=C(Nc1cncnc1OCC(F)(F)F)c1ccnc(Nc2ccc(C(F)(F)F)cc2)n1 [Example 68]", "GSK3α (Homo sapiens)", 8.89),
    ("CCOc1ccc(Nc2nccc(C(=O)Nc3cnccc3-c3ccccc3)n2)cc1 [Example 7]", "GSK3α (Homo sapiens)", 8.96),
]

**Q:** Please look up its pIC50: CC(C)(C)[C@H]1CC[C@@H](Nc2nccc(C(=O)Nc3cnccc3OCC(F)(F)F)n2)CC1 [Example 122]
**A:** 7.92

**Q:** Please look up its pIC50: CC(C)Nc1nccc(C(=O)Nc2cnccc2OCC(F)(F)F)n1 [Example 120]
**A:** 8.85

**Q:** Please look up its pIC50: O=C(Nc1cnccc1-c1ccc(F)cc1)c1ccnc(Nc2ccccn2)n1 [Example 161]
**A:** 7.70

**Q:** Please look up its pIC50: Cc1cc(N2CCC(F)(F)CC2)c(NC(=O)c2ccnc(Nc3ccc(Cl)cc3)n2)cn1 [Example 182]
**A:** 9.00

**Q:** Please look up its pIC50: O=C(Nc1cnc(F)cc1N1CCC(F)(F)CC1)c1ccnc(Nc2ccc(F)cc2)n1 [Example 180]
**A:** 9.41

**Q:** Please look up its pIC50: O=C(Nc1cncnc1)c1ccnc(NCC2CC2c2ccc(F)cc2F)n1 (stereo not drawn) [Example 197]
**A:** 7.68
